Listed next: entries and their corresponding remaining activity at 1 µM.
# study_system: ULK1 (Homo sapiens)
# Sequence (O75385 1-1050): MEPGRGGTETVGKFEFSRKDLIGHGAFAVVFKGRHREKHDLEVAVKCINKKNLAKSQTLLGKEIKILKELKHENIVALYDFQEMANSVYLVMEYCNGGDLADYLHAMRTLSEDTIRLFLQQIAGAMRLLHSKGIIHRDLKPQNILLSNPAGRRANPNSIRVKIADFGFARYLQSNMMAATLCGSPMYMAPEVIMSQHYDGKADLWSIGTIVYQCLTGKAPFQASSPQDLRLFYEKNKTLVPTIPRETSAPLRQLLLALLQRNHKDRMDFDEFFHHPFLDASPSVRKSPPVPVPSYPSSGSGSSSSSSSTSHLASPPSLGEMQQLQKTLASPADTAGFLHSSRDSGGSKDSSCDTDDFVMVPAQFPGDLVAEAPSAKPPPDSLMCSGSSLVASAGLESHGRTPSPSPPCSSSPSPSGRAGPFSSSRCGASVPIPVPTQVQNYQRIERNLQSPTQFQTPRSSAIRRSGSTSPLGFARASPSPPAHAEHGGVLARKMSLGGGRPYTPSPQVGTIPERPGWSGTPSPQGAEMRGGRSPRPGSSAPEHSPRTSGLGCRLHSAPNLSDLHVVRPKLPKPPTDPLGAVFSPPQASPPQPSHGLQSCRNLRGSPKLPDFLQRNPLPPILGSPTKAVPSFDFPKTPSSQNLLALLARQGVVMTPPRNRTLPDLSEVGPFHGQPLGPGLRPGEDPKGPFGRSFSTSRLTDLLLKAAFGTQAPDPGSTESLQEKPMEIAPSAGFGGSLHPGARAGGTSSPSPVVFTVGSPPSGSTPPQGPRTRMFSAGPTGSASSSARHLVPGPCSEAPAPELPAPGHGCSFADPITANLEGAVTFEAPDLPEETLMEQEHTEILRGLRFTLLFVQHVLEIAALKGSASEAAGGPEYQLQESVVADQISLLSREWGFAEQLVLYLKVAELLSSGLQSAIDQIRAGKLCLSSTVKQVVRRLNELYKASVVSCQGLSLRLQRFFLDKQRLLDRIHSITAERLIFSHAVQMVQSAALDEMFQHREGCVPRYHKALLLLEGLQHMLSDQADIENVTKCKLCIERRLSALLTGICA
# test: Kinase profiling (radiometric filter-binding)
# Assay type: biochemical
# measurement_parameters: ULK1, 1 µM inhibitor; read-out: Residual activity, %
Square brackets hold non-standard residues; d marks the D form. Peptide text beside a SMILES is read from it. * marks the point of attachment. X3 = O=C(CCCCCNCc1nc2c(sc3cc(Br)cnc32)c(=O)[nH]1)*
Provide the reading as a plain figure in %.

Input: Value lookup for remaining activity at 1 µM; key = "N=C(N)NCCC[C@@H](NC(=O)CNC(=O)[C@@H](CCCNC(=N)N)NC(=O)[C@@H](CCCNC(=N)N)NC(=O)Cn1cc(CNCc2nc3c(sc4ccc(Br)cc43)c(=O)[nH]2)nn1)C(=O)N[C@H](CCCCN)C(N)=O"
Output: 108

Input: Now the same for N=C(N)NCCC[C@@H](NC(=O)CCCCCNCc1nc2c(sc3cc(Br)cnc32)c(=O)[nH]1)C(=O)N[C@H](CCCNC(=N)N)C(=O)N[C@H](CCCNC(=N)N)C(=O)N[C@H](CCCNC(=N)N)C(=O)N[C@H](CCCNC(=N)N)C(=O)N[C@H](CCCNC(=N)N)C(=O)N[C@H](CCCCN)C(N)=O [ARC-3126, BPTP-Ahx-(D-Arg)6-D-Lys-NH2] (X3-[dR][dR][dR][dR][dR][dR][dK]-NH2)
Output: 119
